# Measurement Conditions: in ethylene glycol, 313.15 K
Measurement Label: solubility (mole fraction)

# Chemical Smiles, Reported Measurement
records = [
    ("CC(=O)c1ccc(S(C)(=O)=O)cc1", 0.0395),
]

----------
# Measurement Conditions: in n-hexane, 308.15 K

# Chemical Smiles, solubility (mole fraction)
rows = [
    ("CC(=O)c1ccc(S(C)(=O)=O)cc1", 0.0121),
]

----------
# Measurement Conditions: in isobutanol, 293.15 K
Measurement Label: solubility (mole fraction)

# Chemical Smiles, Reported Measurement
data = [
    ("CC(=O)c1ccc(S(C)(=O)=O)cc1", 0.0108),
]

----------
# Measurement Conditions: in n-butanol, 318.15 K

# Chemical Smiles, solubility (mole fraction)
data = [
    ("CC(=O)c1ccc(S(C)(=O)=O)cc1", 0.0234),
]
